Cited source: patent US20210206877A1

The following binders are shown together with reported EC50, FRET short substrate assay values.
# tested.target: BACE1 ECD (as used in the enzyme activity assay) (UniProt P56817 22-457, limits assumed)
# Sequence (P56817 22-457 limits assumed): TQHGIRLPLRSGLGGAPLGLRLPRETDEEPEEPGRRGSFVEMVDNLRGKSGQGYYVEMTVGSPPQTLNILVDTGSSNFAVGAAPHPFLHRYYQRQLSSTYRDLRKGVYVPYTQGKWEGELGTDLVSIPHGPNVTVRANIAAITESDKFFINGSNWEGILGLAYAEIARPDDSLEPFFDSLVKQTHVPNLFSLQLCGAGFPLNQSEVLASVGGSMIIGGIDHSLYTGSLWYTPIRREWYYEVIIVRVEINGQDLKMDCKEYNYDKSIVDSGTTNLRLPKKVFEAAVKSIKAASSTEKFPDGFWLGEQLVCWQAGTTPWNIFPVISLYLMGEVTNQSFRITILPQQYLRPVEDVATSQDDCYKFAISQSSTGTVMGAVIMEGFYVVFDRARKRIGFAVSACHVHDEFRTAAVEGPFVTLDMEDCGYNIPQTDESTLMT
# assay.details: cell-based or functional assay
Return type: number; implicit unit nM.

Known results for binders:
>>> measured("5883 (antibody, V domains shown) VH: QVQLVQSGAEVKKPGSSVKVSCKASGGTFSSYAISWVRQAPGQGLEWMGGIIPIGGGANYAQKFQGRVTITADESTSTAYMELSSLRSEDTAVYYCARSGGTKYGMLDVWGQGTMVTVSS VL: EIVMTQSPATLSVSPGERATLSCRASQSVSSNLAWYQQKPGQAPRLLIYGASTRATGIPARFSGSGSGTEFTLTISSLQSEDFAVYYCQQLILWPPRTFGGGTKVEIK")
0.607
>>> measured("5884 (antibody, V domains shown) VH: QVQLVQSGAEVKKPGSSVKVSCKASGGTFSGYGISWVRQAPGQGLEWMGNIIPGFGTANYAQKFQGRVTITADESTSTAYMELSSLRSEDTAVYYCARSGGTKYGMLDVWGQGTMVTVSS VL: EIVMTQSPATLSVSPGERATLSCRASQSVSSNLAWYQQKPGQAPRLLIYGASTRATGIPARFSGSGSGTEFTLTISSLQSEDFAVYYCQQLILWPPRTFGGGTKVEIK")
0.478

Turning now to a further binder:
Query: Requested field: EC50, FRET short substrate assay. Item: 5874 (antibody, V domains shown) VH: EVQLLESGGGLVQPGGSLRLSCAASGFTFGSYAMSWVRQAPGKGLEWVSATSGSGGSTYYADSVKGRFTISRDNSKNTLYLQMDSLRAEDTAVYYCAKGGSQWLYAPGSWFDPWGQGTLVTVSS VL: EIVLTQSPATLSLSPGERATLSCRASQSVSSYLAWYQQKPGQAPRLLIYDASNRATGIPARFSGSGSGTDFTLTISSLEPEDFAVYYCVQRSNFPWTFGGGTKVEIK
Response: 0.798
